// data source = PubChem BioAssay AID1159580

# protocol summary: chemical genetic growth profiling, strain panel (AID 1159580);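 also: tested at 20 µM; growth read once vehicle control cultures reached saturation at 30 °C; 1 = growth at the plate median or of vehicle wells; lower values mean less growth of the strain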
# reported conditions: S. cerevisiae deletion strains, growth OD, locus YLR370C, strain arc18, stronger effect = lower value
Hit rate of the full screen: of about 5,500 compounds, about 2,000 (36%) were called active. Roughly 18% stayed inconclusive and do not appear here. Some of the results follow.
property label: normalized growth
Numbers only.

A selection of reference data follows.
compound structure	property label	value observed
CN(C)N=Nc1nc[nH]c1C(N)=O	normalized growth	0.973
C=C1[C@H]2CC[C@@]3(C)[C@H](c4ccoc4)OC(=O)C[C@]13O[C@H]1C[C@H](O)C(C)(C)[C@H](CC(=O)OC)[C@]12C	normalized growth	1

**Q:** What value of normalized growth has been reported for the following compound? `O=c1[nH]cnc2[nH]ncc12`
**A:** 1.01

----------
For each entry below, report its normalized growth value.
# protocol summary: chemical genetic growth profiling, strain panel (AID 1159580);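 also: tested at 20 µM; growth read once vehicle control cultures reached saturation at 30 °C; 1 = growth at the plate median or of vehicle wells; lower values mean less growth of the strain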
# reported conditions: S. cerevisiae deletion strains, growth OD, locus YLR262C, strain YPT6 (second series), stronger effect = lower value
About 2,000 (36%) of roughly 5,500 compounds were called active. Another 18% or so got no clear call; they are omitted. The list shows a part of the results.
Numbers only.

Please review the entries below; each comes with its answer.
molecule	value observed
O=C(O)CCC(=O)Nc1ccc(S(=O)(=O)Nc2nccs2)cc1	1.01
O=c1cc(-c2cc(O)c(O)c(O)c2)oc2cc(O)cc(O)c12	0.905
CNC(=O)Oc1ccc2c(c1)[C@]1(C)CCN(C)[C@@H]1N2C	1.05
CNCCCN1c2ccccc2CCc2ccccc21	1.09
Nc1ccn(C2O[C@H](CO)[C@@H](O)[C@H]2O)c(=O)n1 (stereo partly specified)	0.992

Let's switch to this molecule now.
**Q:** What value of normalized growth has been reported for the following molecule? `O=c1cc(-c2ccc(O)cc2)oc2cc(O)cc(O)c12`
**A:** 1.05

----------
# protocol summary: chemical genetic growth profiling, strain panel (AID 1159580);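 also: tested at 20 µM; growth read once vehicle control cultures reached saturation at 30 °C; 1 = growth at the plate median or of vehicle wells; lower values mean less growth of the strain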
# reported conditions: S. cerevisiae deletion strains, growth OD, locus YJL157C, strain FAR1
Hit rate of the full screen: of about 5,500 compounds, about 2,000 (36%) were called active. About 18% were inconclusive and are not listed. Rule as the data show it: active = normalized growth mostly below about 0.91 (no sharp cut-off); inconclusive = no clear call, values can overlap the other calls; inactive = mostly above about 0.92. Some of the results follow.
# output must be one of Y for active, N for inactive

compound	class
COc1ccc(C(=O)NCc2csc3ccc(Cl)cc23)cc1OC	N
CC1(C)c2ccccc2N(CCC(N)=O)C12C=Cc1c(ccc3ccccc13)O2 (configuration not stated)	N
C/C(=N/Nc1ccccc1)c1cc(Cl)cc(Cl)c1O	N
CNC(=O)n1nc(C)c(Cc2csc3ccc(Cl)cc23)c1C	N
Oc1ccc(N=Nc2ccccn2)c(O)c1	Y

**Q:** Just curious, what result did `CS(=O)(=O)c1sc(C(=O)Sc2ccc(Cl)cc2)c2c1C=CCC2` get here?
**A:** Y

**Q:** Similarly, `COc1ccc(OC)c(-c2ccn[nH]2)c1OCc1ccccc1` ?
**A:** N

----------
Assign normalized growth to each entry below.
# protocol summary: chemical genetic growth profiling, strain panel (AID 1159580);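 also: tested at 20 µM; growth read once vehicle control cultures reached saturation at 30 °C; 1 = growth at the plate median or of vehicle wells; lower values mean less growth of the strain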
# reported conditions: S. cerevisiae deletion strains, growth OD, locus YBR231C, strain swc5, stronger effect = lower value
The campaign covered roughly 5,500 compounds. About 2,000 (36%) were called active. About 18% were inconclusive and are not listed. Some of the results follow.
Answers are plain numbers.

Sample answers from the record:
molecule	normalized growth
O=C(O)CCC(=O)Nc1ccc(S(=O)(=O)Nc2nccs2)cc1	0.996
S=P(N1CC1)(N1CC1)N1CC1	1.01
CN(C)N=Nc1nc[nH]c1C(N)=O	0.985
NNCCc1ccccc1	1.01
C=C[C@H]1CN2CC[C@H]1C[C@@H]2[C@H](O)c1ccnc2ccccc12	0.989

// input: 3 molecules below; output: normalized growth for each
1. C=C1C2CC[C@@]3(C)[C@H](c4ccoc4)OC(=O)C[C@]13O[C@H]1CC(=O)C(C)(C)C(CC(=O)OC)[C@@]21C (stereo partly drawn)
2. CNCCCN1c2ccccc2CCc2ccccc21
3. CN(C(=O)CN(CCO)CC(=O)N(C)C(C)(C)Cc1ccccc1)C(C)(C)Cc1ccccc1

**A:**
1. 0.983
2. 1.02
3. 1
